These data points were gathered from ChEMBL document CHEMBL4411288.

- Tested on: PC-3
- assay overview: Cytotoxicity against human PC3 cells assessed as reduction in cell viability after 72 hrs by MTT assay
- Type: functional, cell-based
- condition description: PC-3, 72 h
The reader will find reported log10 IC50 values listed item by item below.
recorded metric: log10 IC50 (log10 of the value in µM)

>  <molecule>
CC(=O)c1c(C)c2cnc(Nc3ccc(N4CCNCC4)cn3)nc2n(C2CCCC2)c1=O [PALBOCICLIB]

>  <log10 IC50>
0.34

$$$$
>  <molecule>
CCN1CCN(c2ccc(Nc3ncc4c(n3)n(C3CCCC3)c(=O)c3nnnn34)cc2)CC1

>  <log10 IC50>
1.21

$$$$
>  <molecule>
CC[C@@H]1C(=O)N(C)c2cnc(Nc3ccc(C(=O)N[C@H]4CC[C@H](N5CCN(CC6CC6)CC5)CC4)cc3OC)nc2N1C(C)C [VOLASERTIB]

>  <log10 IC50>
-1.05

$$$$
>  <molecule>
CCN1CCN(c2ccc(Nc3ncc4c(n3)n(C3CCCC3)c(=O)c3nncn34)cc2)CC1

>  <log10 IC50>
0.54

$$$$
>  <molecule>
O=c1c2nncn2c2cnc(Nc3ccc(N4CCCC4)cc3)nc2n1C1CCCC1

>  <log10 IC50>
1.05

$$$$
>  <molecule>
Cc1nnc2c(=O)n(C3CCCC3)c3nc(Nc4ccc(N5CCN(CCO)CC5)cc4)ncc3n12

>  <log10 IC50>
0.93

$$$$
>  <molecule>
Cc1nnc2c(=O)n(C3CCCC3)c3nc(Nc4ccc(N5CCN(C)CC5)cc4)ncc3n12

>  <log10 IC50>
0.88

$$$$
>  <molecule>
CN1CCN(c2ccc(Nc3ncc4c(n3)n(C3CCCC3)c(=O)c3nnnn34)cc2)CC1

>  <log10 IC50>
0.58

$$$$

----------
- Tested on: PC-3
- assay overview: Cytotoxicity against human PC3 cells assessed as reduction in cell viability after 72 hrs by MTT assay
- Type: functional, cell-based
- condition description: PC-3, 72 h
The reader will find reported IC50 values listed item by item below.
recorded metric: IC50

>  <compound>
Cc1nnc2c(=O)n(C3CCCC3)c3nc(Nc4ccc(N5CCC(C)CC5)cc4)ncc3n12

>  <result>
> 50 µM

$$$$
>  <compound>
O=c1c2nncn2c2cnc(Nc3ccc(N4CCC(O)CC4)cc3)nc2n1C1CCCC1

>  <result>
> 50 µM

$$$$
>  <compound>
CC1CCN(c2ccc(Nc3ncc4c(n3)n(C3CCCC3)c(=O)c3nnnn34)cc2)CC1

>  <result>
> 50 µM

$$$$
>  <compound>
O=c1c2nncn2c2cnc(Nc3ccc(N4CCCCC4)cc3)nc2n1C1CCCC1

>  <result>
> 50 µM

$$$$
>  <compound>
CC1CN(c2ccc(Nc3ncc4c(n3)n(C3CCCC3)c(=O)c3nncn34)cc2)CC(C)N1 (stereo not drawn)

>  <result>
3.26 µM

$$$$
>  <compound>
O=c1c2nnnn2c2cnc(Nc3ccc(N4CCSCC4)cc3)nc2n1C1CCCC1

>  <result>
> 50 µM

$$$$
>  <compound>
CC1CN(c2ccc(Nc3ncc4c(n3)n(C3CCCC3)c(=O)c3nnnn34)cc2)CC(C)N1 (stereo not drawn)

>  <result>
1 µM

$$$$
>  <compound>
CN1CCN(C2CCN(c3ccc(Nc4ncc5c(n4)n(C4CCCC4)c(=O)c4nncn45)cc3)CC2)CC1

>  <result>
13.4 µM

$$$$

----------
- Test system: PC-3
- assay overview: Cytotoxicity against human PC3 cells assessed as reduction in cell viability after 72 hrs by MTT assay
- Type: functional, cell-based
- condition description: PC-3, 72 h
pIC50: −log10 of the molar value.

>  <molecule>
Cc1nnc2c(=O)n(C3CCCC3)c3nc(Nc4ccc(N5CCSCC5)cc4)ncc3n12

>  <target or system>
PC-3

>  <pIC50>
< 4.30

$$$$
>  <molecule>
O=c1c2nncn2c2cnc(Nc3ccc(N4CCN(C5CCCC5)CC4)cc3)nc2n1C1CCCC1

>  <target or system>
PC-3

>  <pIC50>
< 4.30

$$$$
>  <molecule>
Cc1nnc2c(=O)n(C3CCCC3)c3nc(Nc4ccc(N(C)C)cc4)ncc3n12

>  <target or system>
PC-3

>  <pIC50>
< 4.30

$$$$
>  <molecule>
Cc1nnc2c(=O)n(C3CCCC3)c3nc(Nc4ccc(N5CC(C)NC(C)C5)cc4)ncc3n12 (centres undefined)

>  <target or system>
PC-3

>  <pIC50>
6.29

$$$$
>  <molecule>
Cc1nnc2c(=O)n(C3CCCC3)c3nc(Nc4ccc(N5CCC(O)CC5)cc4)ncc3n12

>  <target or system>
PC-3

>  <pIC50>
< 4.30

$$$$
>  <molecule>
CCN1CCN(c2ccc(N(C(C)=O)c3ncc4c(n3)n(C3CCCC3)c(=O)c3nnc(C)n34)cc2)CC1

>  <target or system>
PC-3

>  <pIC50>
< 4.30

$$$$
>  <molecule>
O=c1c2nnnn2c2cnc(Nc3ccc(N4CCCC4)cc3)nc2n1C1CCCC1

>  <target or system>
PC-3

>  <pIC50>
< 4.30

$$$$
>  <molecule>
CC1CCN(c2ccc(Nc3ncc4c(n3)n(C3CCCC3)c(=O)c3nncn34)cc2)CC1

>  <target or system>
PC-3

>  <pIC50>
< 4.30

$$$$
>  <molecule>
O=c1c2nnnn2c2cnc(Nc3ccc(NC4CCCC4)cc3)nc2n1C1CCCC1

>  <target or system>
PC-3

>  <pIC50>
< 4.30

$$$$
>  <molecule>
CN1CCN(c2ccc(Nc3ncc4c(n3)n(C3CCCC3)c(=O)c3nncn34)cc2)CC1

>  <target or system>
PC-3

>  <pIC50>
4.58

$$$$
>  <molecule>
Cc1nnc2c(=O)n(C3CCCC3)c3nc(Nc4ccc(N5CCCCC5)cc4)ncc3n12

>  <target or system>
PC-3

>  <pIC50>
< 4.30

$$$$
>  <molecule>
O=c1c2nncn2c2cnc(Nc3ccc(N4CCN(CCO)CC4)cc3)nc2n1C1CCCC1

>  <target or system>
PC-3

>  <pIC50>
4.72

$$$$
>  <molecule>
O=c1c2nnnn2c2cnc(Nc3ccc(N4CCN(C5CCCC5)CC4)cc3)nc2n1C1CCCC1

>  <target or system>
PC-3

>  <pIC50>
< 4.30

$$$$
>  <molecule>
O=c1c2nnnn2c2cnc(Nc3ccc(N4CCN(CCO)CC4)cc3)nc2n1C1CCCC1

>  <target or system>
PC-3

>  <pIC50>
< 4.30

$$$$
>  <molecule>
O=c1c2nnnn2c2cnc(Nc3ccc(N4CCOCC4)cc3)nc2n1C1CCCC1

>  <target or system>
PC-3

>  <pIC50>
< 4.30

$$$$
>  <molecule>
O=c1c2nncn2c2cnc(Nc3ccc(N4CCSCC4)cc3)nc2n1C1CCCC1

>  <target or system>
PC-3

>  <pIC50>
< 4.30

$$$$
>  <molecule>
O=c1c2nncn2c2cnc(Nc3ccc(N4CCOCC4)cc3)nc2n1C1CCCC1

>  <target or system>
PC-3

>  <pIC50>
< 4.30

$$$$
>  <molecule>
O=c1c2nncn2c2cnc(Nc3ccc(NC4CCCC4)cc3)nc2n1C1CCCC1

>  <target or system>
PC-3

>  <pIC50>
< 4.30

$$$$
>  <molecule>
CCN1CCN(c2ccc(Nc3ncc4c(n3)n(C3CCCC3)c(=O)c3nnc(C)n34)cc2)CC1

>  <target or system>
PC-3

>  <pIC50>
5.30

$$$$

----------
- target or system: Serine/threonine-protein kinase PLK1 (Homo sapiens) (UniProt P53350)
- Sequence (P53350 whole entry): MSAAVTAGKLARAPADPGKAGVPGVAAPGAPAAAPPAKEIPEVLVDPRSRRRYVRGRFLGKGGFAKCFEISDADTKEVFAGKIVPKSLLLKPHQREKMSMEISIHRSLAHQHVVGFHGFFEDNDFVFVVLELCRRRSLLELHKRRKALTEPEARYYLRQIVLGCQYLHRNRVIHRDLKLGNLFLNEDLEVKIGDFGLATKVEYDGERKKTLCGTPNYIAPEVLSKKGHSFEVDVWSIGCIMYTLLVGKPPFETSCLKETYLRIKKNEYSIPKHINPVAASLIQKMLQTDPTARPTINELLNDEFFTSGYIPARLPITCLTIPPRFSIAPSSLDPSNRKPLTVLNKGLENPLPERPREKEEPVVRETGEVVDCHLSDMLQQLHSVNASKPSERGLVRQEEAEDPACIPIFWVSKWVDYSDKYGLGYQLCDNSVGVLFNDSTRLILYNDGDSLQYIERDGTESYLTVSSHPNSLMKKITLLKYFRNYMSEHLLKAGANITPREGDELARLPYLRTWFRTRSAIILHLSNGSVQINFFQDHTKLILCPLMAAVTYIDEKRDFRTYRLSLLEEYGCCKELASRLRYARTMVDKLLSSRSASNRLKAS
- assay overview: Inhibition of recombinant human N-terminal His6-tagged PLK1 expressed in baculovirus infected Sf21 insect cells at 1 uM using FAM-labelled peptide as substrate preincubated for 10 mins followed by substrate addition measured after 1 hr relative to control
Label condition met when inhibition is at or above 70%; anything below gets condition not met.

>  <compound>
CCN1CCN(c2ccc(Nc3ncc4c(n3)n(C3CCCC3)c(=O)c3nnc(C)n34)cc2)CC1

>  <category label>
condition not met

$$$$
>  <compound>
Cc1nnc2c(=O)n(C3CCCC3)c3nc(Nc4ccc(N5CCN(C6CCCC6)CC5)cc4)ncc3n12

>  <category label>
condition not met

$$$$
>  <compound>
CC[C@@H]1C(=O)N(C)c2cnc(Nc3ccc(C(=O)N[C@H]4CC[C@H](N5CCN(CC6CC6)CC5)CC4)cc3OC)nc2N1C(C)C

>  <category label>
condition met

$$$$
>  <compound>
Cc1nnc2c(=O)n(C3CCCC3)c3nc(Nc4ccc(N5CCN(C)CC5)cc4)ncc3n12

>  <category label>
condition not met

$$$$
>  <compound>
CN1CCN(c2ccc(Nc3ncc4c(n3)n(C3CCCC3)c(=O)c3nnnn34)cc2)CC1

>  <category label>
condition not met

$$$$
>  <compound>
Cc1nnc2c(=O)n(C3CCCC3)c3nc(Nc4ccc(N5CCN(CCO)CC5)cc4)ncc3n12

>  <category label>
condition not met

$$$$
>  <compound>
Cc1nnc2c(=O)n(C3CCCC3)c3nc(Nc4ccc(N5CC(C)NC(C)C5)cc4)ncc3n12 (stereo unspecified)

>  <category label>
condition met

$$$$
>  <compound>
CCN1CCN(c2ccc(Nc3ncc4c(n3)n(C3CCCC3)c(=O)c3nncn34)cc2)CC1

>  <category label>
condition not met

$$$$
>  <compound>
CC1CN(c2ccc(Nc3ncc4c(n3)n(C3CCCC3)c(=O)c3nnnn34)cc2)CC(C)N1 (stereo unspecified)

>  <category label>
condition met

$$$$
>  <compound>
CN1CCN(c2ccc(Nc3ncc4c(n3)n(C3CCCC3)c(=O)c3nncn34)cc2)CC1

>  <category label>
condition not met

$$$$
